Provide the recorded pIC50 for the entries that follow.
The scale used: pIC50 is minus the common logarithm of the concentration in molar units.

Under Protein deacetylase HDAC6 (Homo sapiens, UniProt Q9UBN7), report pIC50 for O=C(NO)c1ccc(C(=O)Nc2n[nH]c3cc(-c4cc(Cl)cc(Cl)c4)ccc23)cc1
6.53

Under Protein deacetylase HDAC6 (Homo sapiens, UniProt Q9UBN7), report pIC50 for CCCOc1cccc(-c2ccc3c(NC(=O)c4ccc(C(=O)NO)cc4)n[nH]c3c2)c1
6.46

Under Protein deacetylase HDAC6 (Homo sapiens, UniProt Q9UBN7), report pIC50 for O=C(NO)c1ccc(C(=O)Nc2n[nH]c3cc(-c4ccccc4Cl)ccc23)cc1
7.23

Under Protein deacetylase HDAC6 (Homo sapiens, UniProt Q9UBN7), report pIC50 for O=C(NO)c1ccc(C(=O)Nc2n[nH]c3cc(-c4ccc(C(F)(F)F)cc4)ccc23)cc1
6.99

Under Protein deacetylase HDAC6 (Homo sapiens, UniProt Q9UBN7), report pIC50 for O=C(NO)c1ccc(C(=O)Nc2n[nH]c3cc(-c4ccccc4F)ccc23)cc1
7.19

Under Protein deacetylase HDAC6 (Homo sapiens, UniProt Q9UBN7), report pIC50 for COc1ccc(-c2ccc3c(NC(=O)c4ccc(C(=O)NO)cc4)n[nH]c3c2)cc1OC
7.48

Under Protein deacetylase HDAC6 (Homo sapiens, UniProt Q9UBN7), report pIC50 for COc1cc(OC)cc(-c2ccc3c(NC(=O)c4ccc(C(=O)NO)cc4)n[nH]c3c2)c1
6.62

Under Protein deacetylase HDAC6 (Homo sapiens, UniProt Q9UBN7), report pIC50 for CCOc1cccc(-c2ccc3c(NC(=O)c4ccc(C(=O)NO)cc4)n[nH]c3c2)c1
7.47

Under Protein deacetylase HDAC6 (Homo sapiens, UniProt Q9UBN7), report pIC50 for O=C(NO)c1ccc(C(=O)Nc2n[nH]c3cc(-c4ccc(Cl)c(F)c4)ccc23)cc1
7.01

Under Protein deacetylase HDAC6 (Homo sapiens, UniProt Q9UBN7), report pIC50 for O=C(NO)c1ccc(C(=O)Nc2n[nH]c3cc(-c4cccc(OC(F)(F)F)c4)ccc23)cc1
6.66

Under Protein deacetylase HDAC6 (Homo sapiens, UniProt Q9UBN7), report pIC50 for COc1ccc(-c2ccc3c(NC(=O)c4ccc(C(=O)NO)cc4)n[nH]c3c2)cc1
7.39

Under Protein deacetylase HDAC6 (Homo sapiens, UniProt Q9UBN7), report pIC50 for Cc1cc(C)cc(-c2ccc3c(NC(=O)c4ccc(C(=O)NO)cc4)n[nH]c3c2)c1
6.60

Under Protein deacetylase HDAC6 (Homo sapiens, UniProt Q9UBN7), report pIC50 for COc1ccccc1-c1ccc2c(NC(=O)c3ccc(C(=O)NO)cc3)n[nH]c2c1
7.40
